Data origin, for the record: PubChem BioAssay

Assay: inhibitors of the yeast RAM network, pilot screen, dse1pr::URA3 reporter, 5-FOA selection (AID 869);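 note: 0% = DMSO wells with no growth and 100% = 10 µM 1-NA-PP1 with full growth; RAM network block rescues cells from 5-FOA so hits raise OD615 growth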
Settings: S. cerevisiae dse1pr::URA3 5-FOA growth, OD615, 2 d; at 10 µM; active compounds read high; strain carries analog-sensitive mutant Cbk1 kinase
# key: entry, value: inhibition
MEASUREMENT_LABEL: inhibition (%)

INSERT INTO results (compound, observed_value) VALUES
  ('Cc1ccc2c(CC(=O)O)coc2c1C', -0.555),
  ('CCC(C)N1C(=O)CCC1C(=O)NCc1ccc2c(c1)OCO2 (stereo unspecified)', 2.33),
  ('Cc1ccc(-n2ncc3c(=O)[nH]c(SCC(=O)N4CCCCC4)nc32)cc1', 1.27),
  ('C=CCOC(=O)c1[nH]c2c(c1C)C(=O)CC(c1cc(OC)c(OC)c(OC)c1)C2 (stereo unspecified)', 3.67),
  ('COC(=O)C1C(=O)CC(C)(O)C(C(=O)OC)C1c1ccc2c(c1)OCO2 (stereo unspecified)', 1.74),
  ('CCn1cc(C2=NC(C(C)C)CO2)c2ccccc21 (stereo unspecified)', 1.54),
  ('COc1ccc(C2CCCN2C(=O)Nc2ccc(F)cc2)cc1OC (stereo unspecified)', 2.6),
  ('Cn1c(=O)oc2cc(S(=O)(=O)N3CCCc4ccccc43)ccc21', 1.96),
  ('COCCNC(=O)c1cn(C)c(=O)c2cc(OC)c(OC)cc12', 1.6),
  ('CCCC(=O)Nc1nc2c(OC)ccc(OC)c2s1', 2.33),
  ('CCOC(=O)N1CCN(C(=O)CN(C2CCCCC2)S(=O)(=O)c2ccc(C)cc2)CC1', 1.92);
